Target: Sphingosine 1-phosphate receptor 2 (Homo sapiens, UniProt O95136)
Sequence (O95136 whole entry): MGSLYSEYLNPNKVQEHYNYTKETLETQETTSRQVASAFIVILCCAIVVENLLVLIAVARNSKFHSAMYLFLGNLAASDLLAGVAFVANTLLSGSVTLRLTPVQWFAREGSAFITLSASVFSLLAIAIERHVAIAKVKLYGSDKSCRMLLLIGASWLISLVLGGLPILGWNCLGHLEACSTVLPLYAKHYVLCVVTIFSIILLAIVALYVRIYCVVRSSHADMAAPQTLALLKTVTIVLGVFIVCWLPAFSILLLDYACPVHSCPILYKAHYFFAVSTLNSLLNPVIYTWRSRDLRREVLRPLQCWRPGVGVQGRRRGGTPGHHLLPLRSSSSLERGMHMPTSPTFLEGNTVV
readout-name: pIC50
Answers are plain numbers, as −log10 of the molar value.

Report pIC50 for Cc1nn(C)c2nc(NNC(=O)Nc3cc(Cl)nc(Cl)c3)cc(C(C)C)c12 please. 7.70

###

Target: Sphingosine 1-phosphate receptor 2 (Rattus norvegicus)
Sequence (P47752 whole entry): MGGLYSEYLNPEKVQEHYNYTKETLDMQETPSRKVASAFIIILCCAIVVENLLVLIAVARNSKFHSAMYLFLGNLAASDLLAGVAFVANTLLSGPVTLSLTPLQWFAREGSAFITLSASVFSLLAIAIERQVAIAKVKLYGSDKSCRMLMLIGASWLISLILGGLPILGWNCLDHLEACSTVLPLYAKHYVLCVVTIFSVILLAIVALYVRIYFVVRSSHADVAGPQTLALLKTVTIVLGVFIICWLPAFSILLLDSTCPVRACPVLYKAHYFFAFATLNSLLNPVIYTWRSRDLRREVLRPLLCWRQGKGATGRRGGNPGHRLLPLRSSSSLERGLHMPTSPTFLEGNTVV
readout-name: IC50 (nM)
One number for each entry, in nM.

Which IC50 reading was recorded for the molecule Cc1nn(C)c2nc(NNC(=O)Nc3cc(Cl)nc(Cl)c3)cc(C(C)C)c12 ? 20
